Task for the reader: assign each of the following molecules its reported inhibition at 32 µM.
TEST_SYSTEM: human C-terminal DNMT3A (623-908a.a.) (Homo sapiens)
Construct: The human C-terminal DNMT3A (623-908a.a.); made in house
Sequence (Q9Y6K1 627-912 limits assumed): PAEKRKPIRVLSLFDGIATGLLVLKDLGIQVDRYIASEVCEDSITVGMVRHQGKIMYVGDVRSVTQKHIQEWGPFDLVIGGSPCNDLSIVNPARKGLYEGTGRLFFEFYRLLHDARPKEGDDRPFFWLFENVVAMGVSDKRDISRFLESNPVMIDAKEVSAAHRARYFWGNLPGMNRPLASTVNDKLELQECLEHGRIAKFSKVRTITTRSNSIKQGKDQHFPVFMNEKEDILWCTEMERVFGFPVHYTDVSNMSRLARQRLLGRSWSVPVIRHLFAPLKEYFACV
TEST: hDNMT3A assay (restriction-based fluorescence assay)
Assay type: biochemical
CONDITION_INFO: read-out: hDNMT 3A inhibition, Inhibition (%) 32 μM
Units required after the number.

(Q) Respond only with inhibition at 32 µM recorded for C=CC(=O)N1CCc2cc(OC)c3c4c2C1Cc1ccc(cc1)Oc1cc(ccc1OC)C[C@H]1c2cc(c(cc2CCN1C)O3)O4 (stereo partly drawn)
(A) 79%

(Q) Identify the reported inhibition at 32 µM for the following entry. `CNC(=O)N1CCc2cc(OC)c3c4c2[C@@H]1Cc1ccc(cc1)Oc1cc(ccc1OC)C[C@H]1c2cc(c(cc2CCN1C)O3)O4`
(A) 96%

(Q) Return inhibition at 32 µM (reported value) for this molecule: `COc1ccc2cc1Oc1ccc(cc1)C[C@H]1c3c(cc(OC)c4c3Oc3cc5c(cc3O4)CCN(C)[C@H]5C2)CCN1CC#N`
(A) 79%

(Q) For the molecule `CCN(CC)CCCNC(=O)N1CCc2cc3c4cc2[C@@H]1Cc1ccc(OC)c(c1)Oc1ccc(cc1)C[C@H]1c2c(cc(OC)c(c2O4)O3)CCN1C` , give its measured inhibition at 32 µM value.
(A) 91%

(Q) Give recorded inhibition at 32 µM. `COc1ccc2cc1Oc1ccc(cc1)C[C@H]1c3c(cc(OC)c4c3Oc3cc5c(cc3O4)CCN(C)[C@H]5C2)CCN1CCCn1cnc2c(N)ncnc21`
(A) 60%

(Q) Please list inhibition at 32 µM recorded for the molecule `COc1ccc2cc1Oc1ccc(cc1)C[C@@H]1NCCc3cc(OC)c4c(c31)Oc1cc3c(cc1O4)CCN(C)[C@H]3C2`
(A) 96%
